From: ChEMBL document CHEMBL1201862

Entries annotated with measured GI50
System: NCI-H522
protocol-description: NCI tumour cell line growth inhibition, 48 h
The source made the active and inactive calls. No stated cut-off is given here; in the data, active = GI50 up to about 1.1 µM and inactive = higher.

# compound, GI50
rows = [
    ("COc1ccc2ccccc2c1CN1CCOCCOCCN(Cc2c(OC)ccc3ccccc23)CCOCCOCC1", "> 60.5 µM (inactive)"),
    ("CCc1ccccc1NC(=O)CC1NC(=O)CS1 (stereo not drawn)", "> 100 µM (inactive)"),
    ("COc1ccc(NCc2cnc3nc(N)nc(N)c3c2C)cc1", "5.52 µM (inactive)"),
]

---

System: SK-MEL-2
protocol-description: NCI tumour cell line growth inhibition, 48 h
Activity calls are given as the source filed them. No stated cut-off is given here; in the data, active = GI50 up to about 1.1 µM and inactive = higher. Where a SMILES comes first, the peptide text is derived from it. The star is where a group is joined. Cbz = O=C(OCc1ccccc1)*; Boc = CC(C)(C)OC(=O)*; Bn = c1ccc(C*)cc1
Possible outcomes: active, inactive

# compound, cat
measured = [
    ("Cc1ccc(SCC(OCn2cnc3c(Cl)nc(N)nc32)[C@H](C)F)cc1 (some centres undefined)", "inactive"),
    ("CCCCC(=O)c1ccc2ccccc2c1O", "inactive"),
    ("COc1cc(/C=C/c2cc(=O)cc(/C=C/c3ccc(O)c(OC)c3)o2)ccc1O", "inactive"),
    ("Cc1ccc(Cc2nnc(S)[nH]2)cc1", "inactive"),
    ("Cc1c[nH]c(C(=O)O)c1-c1ccc2c(-c3ccccc3)nc3ccccc3n12", "inactive"),
    ("COc1cc2c(cc1O)C1C(O)C(O)C=C3CCN(C2)C31 (centres undefined)", "inactive"),
    ("CCOP(=O)(O)C(Nc1ccc(/N=N/c2ccccc2)cc1)c1ccc(C(Nc2ccc(/N=N/c3ccccc3)cc2)P(=O)(O)OCC)cc1 (centres undefined)", "inactive"),
    ("Oc1ccc2c(c1)c1c(n2CCN2CCOCC2)-c2ccccc2CC1", "inactive"),
    ("O=C(N/N=C(COc1cccc(Cl)c1)\\N=C\\c1cccnc1)c1ccncc1", "inactive"),
    ("CC(C)(C)OC(=O)NC(Cc1ccc(OCc2ccccc2)cc1)C(=O)NC(CCCCNC(=O)OCc1ccccc1)C(=O)O (centres undefined) (Boc-Tyr(Bn)-Lys(Cbz)-OH; configuration not given here)", "inactive"),
    ("COc1ccc(NS(=O)(=O)c2ccc(NC(NC(=O)CC(C)C)(C(F)(F)F)C(F)(F)F)cc2)nn1", "inactive"),
    ("COC(=O)[C@H]1N[C@@H](C(=O)OC)C23CCC[C@H]2CC[C@]1(C(OC)OC)C3", "inactive"),
    ("CN(C)c1ccc(-c2c(C#N)c(-c3ccccc3)n(NS(=O)(=O)c3ccccc3)c(=O)c2C#N)cc1", "inactive"),
    ("O=C(O)[C@@H](NS(=O)(=O)c1ccc(F)cc1)c1ccccc1", "inactive"),
    ("CC1(C(=O)O)CCCC1C(=O)O (centres undefined)", "inactive"),
    ("COC(=O)/C=C1\\SC2(O\\C1=N/c1ccccc1)C1CC3CC(C1)CC2C3 (centres undefined)", "inactive"),
    ("COC(=O)C1c2c(c3ccccc3n2C(=O)OC)CCN2CCC1C(S(=O)(=O)c1ccccc1)C2=O (centres undefined)", "inactive"),
    ("Nc1ccccc1-n1c2c(c3ccccc3c1=O)C(=O)c1ccccc1-2", "inactive"),
    ("S=C(N/N=C/c1ccccn1)N1CC2CCC(CC2)C1", "active"),
    ("N#CC(C#N)=C1CCCCc2ccc([N+](=O)[O-])cc21", "inactive"),
    ("Cc1ccc(Cc2n[nH]c(=O)n2N2C(=O)c3ccccc3C2=O)cc1", "inactive"),
    ("CC[C@@]1(O)C(=O)OCc2c1cc1n(c2=O)Cc2c-1nc1ccccc1c2/C=N\\NC(=O)C(N)Cc1c[nH]c2ccccc12 (some centres undefined)", "inactive"),
    ("CC[C@@]1(O)C(=O)OCc2c1cc1n(c2=O)Cc2c-1nc1ccccc1c2CC[Si](C)(C)C", "active"),
    ("CC(=O)Oc1cccc2c1C(=O)c1c(OC(C)=O)cc(C)cc1C2=O", "inactive"),
]
